Just for reference, PubChem BioAssay AID1578 is where these values come from.

- assay-method-text: NOD1 signaling inhibitors, primary screen, cell-based, luminescence, uHTS (AID 1578);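 note: HEK-293T reporter cells stimulated with the NOD1 agonist gamma-tri-DAP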
- cond: NOD1-driven NF-kB luciferase reporter cells, at 4 µM, stronger effect = higher value
Out of some 290,000 compounds screened, about 3,000 (1%) were called active. The list comes from a sample in which actives are over-represented; it also holds close analogues and randomly drawn compounds.
This listing pairs compounds with measured inhibition.
Record the value in %, omitting the unit from your answer.

>>> test_value("Cc1cc(C)c(OCCCCn2cnc3ccccc3c2=O)c(C)c1")
12.5
>>> test_value("O=C(Nc1ccc2oc(-c3ccncc3)nc2c1)c1ccc([N+](=O)[O-])o1")
22.8
>>> test_value("CC1CCN(c2nc(-c3ccccc3)c(C#N)c(=O)[nH]2)CC1")
34.5
>>> test_value("COc1ccc(S(=O)(=O)NN(C)c2nc(C(F)(F)F)nc3ccccc23)cc1")
-27.6
>>> test_value("O=C(Nc1ccn(Cc2cccc3ccccc23)n1)c1cccnc1")
7.1

q: Give inhibition for O=C(Cc1cccs1)NNC(=S)NCc1ccco1
a: -26.1

q: Give inhibition for CNc1ccccc1C(=O)OCC(C)=O
a: -41.6

q: Give inhibition for COc1cc(NC(=O)c2ccc([N+](=O)[O-])o2)ccc1NC(=O)c1cccs1
a: 9.1

q: Give inhibition for Cc1ccc2nc(-c3ccc(NC(=O)c4cccnc4)cc3)oc2c1
a: 58.7

====

- assay-method-text: NOD1 signaling inhibitors, primary screen, cell-based, luminescence, uHTS (AID 1578);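 note: HEK-293T reporter cells stimulated with the NOD1 agonist gamma-tri-DAP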
- cond: NOD1-driven NF-kB luciferase reporter cells, at 4 µM
The whole screen tested about 290,000 compounds, of which about 3,000 (1%) were called active. Cut-off read from the data, not from the text of the source: active = inhibition mostly above about 36% (no sharp cut-off); inactive = mostly below about 34%. Shown is part of a subset that was picked to be rich in actives.
The reply should be one of these categories: active, inactive

>>> discrete_label("COc1cccc(C(=O)N/N=C/C(Br)=C/c2ccccc2)c1")
"active"
>>> discrete_label("CC(C)(C)c1ccc(/C=N/Nc2cccc(C(=O)O)c2)cc1")
"inactive"

q: # fetch the recorded call for Cn1c(O)c(C2=c3ccccc3=NC2=O)[nH]c1=S here
a: inactive

====

- assay-method-text: NOD1 signaling inhibitors, primary screen, cell-based, luminescence, uHTS (AID 1578);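 note: HEK-293T reporter cells stimulated with the NOD1 agonist gamma-tri-DAP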
- cond: NOD1-driven NF-kB luciferase reporter cells, at 4 µM, stronger effect = higher value
In all, about 290,000 compounds went through this assay and about 3,000 (1%) were called active. The list comes from a sample in which actives are over-represented; it also holds close analogues and randomly drawn compounds.
This listing pairs compounds with measured inhibition.
Record the value in %, omitting the unit from your answer.

>>> test_value("O=C(O)c1ccc(NS(=O)(=O)c2cccc(C(=O)Nc3ccc(Br)cc3)c2)cc1")
-13.1

// switching to the query compound
q: Give inhibition for Cc1ccc(Sc2ccc(/C=N/O)cc2[N+](=O)[O-])cc1
a: 54.4

====

- assay-method-text: NOD1 signaling inhibitors, primary screen, cell-based, luminescence, uHTS (AID 1578);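 note: HEK-293T reporter cells stimulated with the NOD1 agonist gamma-tri-DAP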
- cond: NOD1-driven NF-kB luciferase reporter cells, at 4 µM, stronger effect = higher value
The campaign covered roughly 290,000 compounds. About 3,000 (1%) were called active. Many of the other results were omitted from the sample, so actives are more common in it than they were.
readout-type: inhibition (%)
Record the value in %, omitting the unit from your answer.

q: Give inhibition for COc1ccc2c(c1)C=C(CN1CCC(CO)(CCc3ccccc3)CC1)CO2
a: -10

q: Give inhibition for CCOP(=O)(c1ccc(N(C)C)cc1)C(O)c1ccccc1 (stereo not drawn)
a: -12.2

q: Give inhibition for Cc1cc(OC(=O)c2ccccc2)n(CCC#N)n1
a: 6.7
